- ASSAY_NAME: AUC (0 to t) in Sprague-Dawley rat at 10 mg/kg, po by LC/MS/MS analysis
- Format: ADME, organism-based
- ASSAY_SETUP: in vivo
OBSERVATION_TYPE: AUC(0-t)

// lookup AUC(0-t) for `Cc1noc(C)c1-c1cc2c(c3c1CCC3)NC(C)(C)C(=O)C2(C)C` 2420 ng·h/mL

---

Assign Ki to each entry below.
- ASSAYED_TARGET: Progesterone receptor (Homo sapiens)
- Sequence (P06401 whole entry): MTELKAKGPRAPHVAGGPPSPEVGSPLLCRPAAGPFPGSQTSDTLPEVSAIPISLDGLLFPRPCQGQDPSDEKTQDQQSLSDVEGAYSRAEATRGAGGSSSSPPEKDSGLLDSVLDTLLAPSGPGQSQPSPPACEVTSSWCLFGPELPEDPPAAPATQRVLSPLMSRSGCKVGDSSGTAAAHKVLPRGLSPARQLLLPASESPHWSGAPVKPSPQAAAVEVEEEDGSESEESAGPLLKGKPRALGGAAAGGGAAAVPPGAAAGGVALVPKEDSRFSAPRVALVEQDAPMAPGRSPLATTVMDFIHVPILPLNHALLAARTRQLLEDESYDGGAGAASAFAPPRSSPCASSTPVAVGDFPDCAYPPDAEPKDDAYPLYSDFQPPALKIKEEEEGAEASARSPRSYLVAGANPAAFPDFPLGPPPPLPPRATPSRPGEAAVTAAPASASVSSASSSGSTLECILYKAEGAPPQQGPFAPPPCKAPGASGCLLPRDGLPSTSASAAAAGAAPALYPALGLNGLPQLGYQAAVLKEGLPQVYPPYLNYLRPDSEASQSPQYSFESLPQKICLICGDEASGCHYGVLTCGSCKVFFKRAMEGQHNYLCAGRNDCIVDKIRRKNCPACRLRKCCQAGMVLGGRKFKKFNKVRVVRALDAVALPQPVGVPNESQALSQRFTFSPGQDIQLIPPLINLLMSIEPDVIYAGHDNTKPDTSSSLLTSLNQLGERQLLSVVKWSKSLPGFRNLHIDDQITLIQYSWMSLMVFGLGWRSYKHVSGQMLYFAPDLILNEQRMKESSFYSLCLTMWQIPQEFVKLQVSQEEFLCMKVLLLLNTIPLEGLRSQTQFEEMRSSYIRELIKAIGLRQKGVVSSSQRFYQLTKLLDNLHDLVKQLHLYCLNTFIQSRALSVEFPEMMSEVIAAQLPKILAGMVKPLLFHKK
- ASSAY_NAME: Displacement of [3H]-progesterone from cytosolic fraction of human recombinant progesterone-B receptor by scintillation counting analysis
The reply should contain only the number, in nM.

// lookup Ki for `Cc1noc(C)c1-c1ccc2c(c1)C(C)(C)C(=O)C(C)(C)N2` 22

// lookup Ki for `Cc1noc(C)c1-c1cc2c(c3c1CCC3)NC(C)(C)C(=O)C2(C)C` 1480

// lookup Ki for `CC1(C)Nc2c(cc(-c3cccn4nccc34)c3c2CCC3)C(C)(C)C1=O` 1190

// lookup Ki for `Cc1noc(C)c1-c1cc2c(cc1Cl)NC(C)(C)C(=O)C2(C)C` 403

// lookup Ki for `Cc1noc(C)c1-c1cc2c(c3c1OCO3)NC(C)(C)C(=O)C2(C)C` 2270

---

- ASSAY_NAME: AUC (0 to t) in Sprague-Dawley rat at 1 mg/kg, iv by LC/MS/MS analysis
- Type: ADME, organism-based
- ASSAY_SETUP: in vivo
OBSERVATION_TYPE: AUC(0-t) (ng·h/mL)
The reply should contain only the number, in ng·h/mL.

// lookup AUC(0-t) for `Cc1noc(C)c1-c1cc2c(c3c1CCC3)NC(C)(C)C(=O)C2(C)C` 410

---

- ASSAYED_TARGET: Androgen receptor (Homo sapiens)
- Sequence (P10275 whole entry): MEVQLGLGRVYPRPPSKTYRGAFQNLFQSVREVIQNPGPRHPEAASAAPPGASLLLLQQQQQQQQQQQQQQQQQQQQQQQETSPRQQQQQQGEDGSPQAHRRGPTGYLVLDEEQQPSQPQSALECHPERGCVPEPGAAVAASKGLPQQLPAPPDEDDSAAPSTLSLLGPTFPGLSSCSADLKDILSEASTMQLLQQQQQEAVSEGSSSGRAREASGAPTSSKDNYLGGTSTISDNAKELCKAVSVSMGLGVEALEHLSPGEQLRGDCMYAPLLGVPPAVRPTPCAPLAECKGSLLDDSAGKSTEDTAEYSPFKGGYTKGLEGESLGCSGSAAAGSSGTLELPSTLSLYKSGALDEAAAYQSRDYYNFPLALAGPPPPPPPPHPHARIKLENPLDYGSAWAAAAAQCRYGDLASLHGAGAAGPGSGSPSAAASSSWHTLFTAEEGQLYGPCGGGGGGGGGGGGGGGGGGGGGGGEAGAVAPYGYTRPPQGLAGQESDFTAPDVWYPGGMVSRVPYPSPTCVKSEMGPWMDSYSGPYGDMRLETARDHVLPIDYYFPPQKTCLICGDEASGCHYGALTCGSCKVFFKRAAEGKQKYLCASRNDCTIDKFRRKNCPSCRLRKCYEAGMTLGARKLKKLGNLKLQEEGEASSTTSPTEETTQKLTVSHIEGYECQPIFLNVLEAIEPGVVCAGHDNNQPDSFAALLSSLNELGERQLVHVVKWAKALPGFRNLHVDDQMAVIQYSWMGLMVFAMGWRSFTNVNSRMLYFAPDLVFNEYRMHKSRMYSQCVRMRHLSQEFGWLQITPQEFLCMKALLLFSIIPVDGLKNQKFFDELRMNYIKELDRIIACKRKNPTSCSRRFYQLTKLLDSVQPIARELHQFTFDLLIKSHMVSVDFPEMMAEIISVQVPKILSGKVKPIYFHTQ
- ASSAY_NAME: Displacement of [3H]methyltrienolone from cytosolic fraction of androgen receptor in human […] cells after 24 hrs by scintillation counting analysis
pKi: −log10 of the molar value.
OBSERVATION_TYPE: pKi

Hi! What's the reported pKi for `Cc1noc(C)c1-c1cc2c(c3c1CCC3)NC(C)(C)C(=O)C2(C)C` on Androgen receptor (Homo sapiens)? < 5.64

---

Assign pKi to each entry below.
- ASSAYED_TARGET: Mineralocorticoid receptor (Homo sapiens, UniProt P08235)
- Sequence (P08235 whole entry): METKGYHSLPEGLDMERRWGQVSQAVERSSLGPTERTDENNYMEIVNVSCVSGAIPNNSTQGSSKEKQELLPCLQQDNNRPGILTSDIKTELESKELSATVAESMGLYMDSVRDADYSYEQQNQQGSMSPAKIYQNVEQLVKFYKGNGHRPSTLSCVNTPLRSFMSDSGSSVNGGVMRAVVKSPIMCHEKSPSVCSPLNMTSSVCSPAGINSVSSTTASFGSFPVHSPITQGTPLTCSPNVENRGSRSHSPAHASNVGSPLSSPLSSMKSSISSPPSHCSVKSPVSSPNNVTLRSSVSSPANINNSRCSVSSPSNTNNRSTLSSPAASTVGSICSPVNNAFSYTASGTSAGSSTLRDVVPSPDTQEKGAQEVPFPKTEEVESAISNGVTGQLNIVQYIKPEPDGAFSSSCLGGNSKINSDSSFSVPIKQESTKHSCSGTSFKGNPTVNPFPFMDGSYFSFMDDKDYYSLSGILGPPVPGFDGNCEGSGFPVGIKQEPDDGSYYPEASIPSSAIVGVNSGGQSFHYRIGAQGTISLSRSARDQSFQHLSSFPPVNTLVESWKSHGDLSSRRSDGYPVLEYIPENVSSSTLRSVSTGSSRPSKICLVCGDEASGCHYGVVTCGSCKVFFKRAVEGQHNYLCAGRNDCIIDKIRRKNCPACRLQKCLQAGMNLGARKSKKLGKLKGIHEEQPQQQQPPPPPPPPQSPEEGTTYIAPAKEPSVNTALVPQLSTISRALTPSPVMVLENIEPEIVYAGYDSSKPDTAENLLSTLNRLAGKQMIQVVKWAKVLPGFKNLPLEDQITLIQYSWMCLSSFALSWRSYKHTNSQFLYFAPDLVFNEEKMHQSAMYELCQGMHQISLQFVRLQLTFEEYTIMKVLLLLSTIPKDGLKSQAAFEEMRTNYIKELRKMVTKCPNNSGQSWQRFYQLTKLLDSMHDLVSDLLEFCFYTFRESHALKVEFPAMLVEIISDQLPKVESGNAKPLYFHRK
- ASSAY_NAME: Displacement of [3H]-aldosterone from cytosolic fraction of human recombinant mineralocorticoid receptor by scintillation counting analysis
pKi: −log10 of the molar value.

// lookup pKi for `Cc1noc(C)c1-c1cc2c(c3c1CCC3)NC(C)(C)C(=O)C2(C)C` < 5.52

// lookup pKi for `Cc1noc(C)c1-c1cc2c(cc1Cl)NC(C)(C)C(=O)C2(C)C` < 5.52

// lookup pKi for `CC1(C)Nc2c(cc(-c3cncc4nccn34)c3c2CCC3)C(C)(C)C1=O` < 5.48

// lookup pKi for `Cc1noc(C)c1-c1ccc2c(c1)C(C)(C)C(=O)C(C)(C)N2` 6.47

// lookup pKi for `Cc1noc(C)c1-c1cc2c(c3c1OCO3)NC(C)(C)C(=O)C2(C)C` < 5.52

---

Assign Ki to each entry below.
- ASSAYED_TARGET: Glucocorticoid receptor (Homo sapiens)
- Sequence (P04150 whole entry): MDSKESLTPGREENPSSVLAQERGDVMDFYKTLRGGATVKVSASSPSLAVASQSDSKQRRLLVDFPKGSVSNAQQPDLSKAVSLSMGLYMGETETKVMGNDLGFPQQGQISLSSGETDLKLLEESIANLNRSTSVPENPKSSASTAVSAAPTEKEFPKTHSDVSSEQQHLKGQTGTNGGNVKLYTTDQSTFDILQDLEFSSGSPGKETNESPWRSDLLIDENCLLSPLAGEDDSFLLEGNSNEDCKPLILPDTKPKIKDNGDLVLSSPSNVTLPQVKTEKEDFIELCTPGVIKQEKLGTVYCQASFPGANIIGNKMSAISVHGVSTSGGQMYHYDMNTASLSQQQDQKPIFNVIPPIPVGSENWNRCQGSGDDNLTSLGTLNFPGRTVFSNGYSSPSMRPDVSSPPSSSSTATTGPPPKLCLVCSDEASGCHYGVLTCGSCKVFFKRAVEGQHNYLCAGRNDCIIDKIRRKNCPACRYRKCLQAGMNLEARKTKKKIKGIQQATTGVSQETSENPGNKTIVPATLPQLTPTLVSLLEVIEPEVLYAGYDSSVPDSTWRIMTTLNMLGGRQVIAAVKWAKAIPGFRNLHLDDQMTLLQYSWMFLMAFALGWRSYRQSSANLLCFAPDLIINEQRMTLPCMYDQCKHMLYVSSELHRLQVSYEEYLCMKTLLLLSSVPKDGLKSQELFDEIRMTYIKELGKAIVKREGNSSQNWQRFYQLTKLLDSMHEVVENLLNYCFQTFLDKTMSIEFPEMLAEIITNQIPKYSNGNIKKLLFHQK
- ASSAY_NAME: Displacement of [3H]-dexamethasone from cytosolic fraction of human recombinant glucocorticoid receptor by scintillation counting analysis
The reply should contain only the number, in nM.

Hi! What's the reported Ki for `Cc1noc(C)c1-c1cc2c(cc1Cl)NC(C)(C)C(=O)C2(C)C` on Glucocorticoid receptor (Homo sapiens)? 151

Hi! What's the reported Ki for `Cc1noc(C)c1-c1ccc2c(c1)C(C)(C)C(=O)C(C)(C)N2` on Glucocorticoid receptor (Homo sapiens)? 16

Hi! What's the reported Ki for `Cc1ncn(C)c1-c1cc2c(c3c1CCC3)NC(C)(C)C(=O)C2(C)C` on Glucocorticoid receptor (Homo sapiens)? 69

Hi! What's the reported Ki for `CC1(C)Nc2c(cc(-c3cncc4nccn34)c3c2CCC3)C(C)(C)C1=O` on Glucocorticoid receptor (Homo sapiens)? 46

Hi! What's the reported Ki for `Cc1cnn(C)c1-c1cc2c(c3c1CCC3)NC(C)(C)C(=O)C2(C)C` on Glucocorticoid receptor (Homo sapiens)? 28

Hi! What's the reported Ki for `CC1(C)Nc2c(cc(-c3ccnc4ccccc34)c3c2CCC3)C(C)(C)C1=O` on Glucocorticoid receptor (Homo sapiens)? 151

Hi! What's the reported Ki for `CC1(C)Nc2c(cc(-c3cccn4nccc34)c3c2CCC3)C(C)(C)C1=O` on Glucocorticoid receptor (Homo sapiens)? 35

Hi! What's the reported Ki for `COc1cc2c(cc1-c1c(C)noc1C)C(C)(C)C(=O)C(C)(C)N2` on Glucocorticoid receptor (Homo sapiens)? 146

Hi! What's the reported Ki for `Cc1noc(C)c1-c1cc2c(c3c1CCCC3)NC(C)(C)C(=O)C2(C)C` on Glucocorticoid receptor (Homo sapiens)? 106

---

- ASSAY_NAME: Tmax in Sprague-Dawley rat at 10 mg/kg, po by LC/MS/MS analysis
- Assay type: ADME, organism-based
- ASSAY_SETUP: in vivo
OBSERVATION_TYPE: Tmax (h)
The reply should contain only the number, in h.

// lookup Tmax for `Cc1noc(C)c1-c1cc2c(c3c1CCC3)NC(C)(C)C(=O)C2(C)C` 3.5

---

- ASSAY_NAME: AUC (0 to infinity) in Sprague-Dawley rat at 10 mg/kg, po by LC/MS/MS analysis
- Assay type: ADME, organism-based
- Design: dose 10 mg/kg, time infinity, route oral
- ASSAY_SETUP: in vivo
OBSERVATION_TYPE: AUC(0-inf) (ng·h/mL)
The reply should contain only the number, in ng·h/mL.

// lookup AUC(0-inf) for `Cc1noc(C)c1-c1cc2c(c3c1CCC3)NC(C)(C)C(=O)C2(C)C` 2720

---

- ASSAY_NAME: Volume of distribution at steady state in Sprague-Dawley rat at 1 mg/kg, iv by LC/MS/MS analysis
- Format: ADME, organism-based
- ASSAY_SETUP: in vivo, read-out: Vdss
OBSERVATION_TYPE: Vd (L/kg)
The reply should contain only the number, in L/kg.

// lookup Vd for `Cc1noc(C)c1-c1cc2c(c3c1CCC3)NC(C)(C)C(=O)C2(C)C` 6.13

---

- ASSAY_NAME: Half life in Sprague-Dawley rat at 1 mg/kg, iv by LC/MS/MS analysis
- Assay type: ADME, organism-based
- ASSAY_SETUP: in vivo
OBSERVATION_TYPE: half-life (h)
The reply should contain only the number, in h.

// lookup half-life for `Cc1noc(C)c1-c1cc2c(c3c1CCC3)NC(C)(C)C(=O)C2(C)C` 3.2

---

- ASSAY_NAME: Total clearance in Sprague-Dawley rat at 1 mg/kg, iv by LC/MS/MS analysis
- Format: ADME, organism-based
- ASSAY_SETUP: in vivo
OBSERVATION_TYPE: clearance (mL/min/kg)
The reply should contain only the number, in mL/min/kg.

// lookup clearance for `Cc1noc(C)c1-c1cc2c(c3c1CCC3)NC(C)(C)C(=O)C2(C)C` 37.1
